biological target: T1, SNAP tagged-CXC4 receptor labeled with terbium (Tag-lite CXCR4 cells, HEK293) (UniProt P61073 1-352, SNAP tag labeled with terbium fluorescent dye); experiment: HTRF competition on Tag-lite CXCR4 HEK293 cells; competitor labelled CXCL12
T1 construct: whole, on cells; Bought frozen cells (PerkinElmer-CisBio), HEK293 transiently expressing the receptor; also called terbium labeled CXCR receptor
T1 sequence (P61073 whole entry): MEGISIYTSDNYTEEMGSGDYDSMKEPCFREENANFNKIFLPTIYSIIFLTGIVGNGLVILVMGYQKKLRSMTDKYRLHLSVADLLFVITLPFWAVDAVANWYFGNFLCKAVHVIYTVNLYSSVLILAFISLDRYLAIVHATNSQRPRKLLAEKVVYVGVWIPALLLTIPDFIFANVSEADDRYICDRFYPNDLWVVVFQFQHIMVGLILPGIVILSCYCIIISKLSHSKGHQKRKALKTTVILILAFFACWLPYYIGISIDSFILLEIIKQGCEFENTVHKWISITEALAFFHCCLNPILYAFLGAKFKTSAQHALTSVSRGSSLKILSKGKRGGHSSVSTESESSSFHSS
Square brackets hold non-standard residues; d marks the D form. Ends that are not written are not given here.
Consider the following binders and their measured Percent Inhibition of CXCR4/CXCL12 Binding (400 nM peptide) readings.
Return type: number; implicit unit %.

Here are 5 binders together with their reported answers.
[
  {
    "binder": "LERYHHSVRSTLRPYTK [SEQ ID NO: 74]",
    "result.unit": "%",
    "val": 88
  },
  {
    "binder": "LRRYHNSVRSSLRPYTK [SEQ ID NO: 44]",
    "result.unit": "%",
    "val": 0
  },
  {
    "binder": "LRRYHHSVRSSLRP [SEQ ID NO: 26]",
    "result.unit": "%",
    "val": 1
  },
  {
    "binder": "LREYHHS[dA]RSSLRPYTK [SEQ ID NO: 32]",
    "result.unit": "%",
    "val": -18
  },
  {
    "binder": "LRRYHHSVRSSLR [SEQ ID NO: 27]",
    "result.unit": "%",
    "val": 10
  }
]

Fill in the blank: the reported Percent Inhibition of CXCR4/CXCL12 Binding (400 nM peptide) of LERYHHS[dA]RSTLRPYTK [SEQ ID NO: 77] is ____. 77

Fill in the blank: the reported Percent Inhibition of CXCR4/CXCL12 Binding (400 nM peptide) of LRRYHHS[dA]RSSLRPYTK [SEQ ID NO: 6] is ____. -10

Fill in the blank: the reported Percent Inhibition of CXCR4/CXCL12 Binding (400 nM peptide) of LREYHHSVRSSLRPYTK [SEQ ID NO: 31] is ____. -16

Fill in the blank: the reported Percent Inhibition of CXCR4/CXCL12 Binding (400 nM peptide) of LRRYHHSVRSSLRPY [SEQ ID NO: 25] is ____. 0

Fill in the blank: the reported Percent Inhibition of CXCR4/CXCL12 Binding (400 nM peptide) of HHSVRSSLRPYTK [SEQ ID NO: 13] is ____. -10

Fill in the blank: the reported Percent Inhibition of CXCR4/CXCL12 Binding (400 nM peptide) of LRRYHHSVRSSLDPYTK [SEQ ID NO: 67] is ____. 3

Fill in the blank: the reported Percent Inhibition of CXCR4/CXCL12 Binding (400 nM peptide) of YHHSVRSSLRPYTK [SEQ ID NO: 12] is ____. -13

Fill in the blank: the reported Percent Inhibition of CXCR4/CXCL12 Binding (400 nM peptide) of LERYHHS[dA]RSSLRPFTK [SEQ ID NO: 61] is ____. 54

All figures here come from patent US20220395553A1.
